Listed next: entries and their corresponding IC50.
# study_target: human 5-HT2AR (Homo sapiens, UniProt P28223)
# Sequence (P28223 whole entry): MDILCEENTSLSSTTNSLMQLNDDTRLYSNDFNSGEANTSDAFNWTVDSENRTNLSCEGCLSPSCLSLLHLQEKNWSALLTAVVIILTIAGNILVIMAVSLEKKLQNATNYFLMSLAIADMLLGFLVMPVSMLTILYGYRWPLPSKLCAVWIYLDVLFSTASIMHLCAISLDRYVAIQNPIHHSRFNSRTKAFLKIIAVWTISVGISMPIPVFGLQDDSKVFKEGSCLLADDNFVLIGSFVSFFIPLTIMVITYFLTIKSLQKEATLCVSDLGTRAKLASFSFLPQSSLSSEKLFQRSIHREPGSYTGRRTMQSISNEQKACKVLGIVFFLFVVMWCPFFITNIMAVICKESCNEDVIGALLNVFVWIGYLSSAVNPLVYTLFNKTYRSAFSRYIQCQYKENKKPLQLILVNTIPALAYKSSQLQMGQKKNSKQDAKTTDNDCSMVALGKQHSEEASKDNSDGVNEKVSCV
# experiment_description: HTRF-based IP1 accumulation assay (5-HT2AR antagonistic effect)
# condition_description: HEK293 cells overexpressing human 5-HT2AR; serotonin at EC80

Some molecules with known IC50 results, for comparison:
O=C(NCC1CCOCC1)c1ccc(C#Cc2ccccc2F)cc1F [Example 35]
1 to 2 µM
O=C(NCC1(NC2CC2)CCCC1)c1ccc(C#Cc2ccc(F)cn2)cc1 [Example 3]
0.1 to 0.5 µM
CC1(CNC(=O)c2ccc(C#Cc3ccccc3F)cc2)CC(F)(F)C1 [Example 97]
1 to 2 µM
CC1(CNC(=O)c2ccc(C#Cc3ccc(F)cc3F)cc2)CCC1 [Example 107]
< 0.1 µM
CC1(CNC(=O)c2ccc(C#Cc3ccc(F)cc3)cc2)CCC1 [Example 106]
0.1 to 0.5 µM
CC1(CNC(=O)c2ccc(C#Cc3ccccc3F)cc2)COC1 [Example 52]
0.1 to 0.5 µM
O=C(NCC1(NC2CC2)CCCCC1)c1ccc(C#Cc2ccccc2F)cc1 [Example 20]
< 0.1 µM
COC(=O)CCC1(CNC(=O)c2ccc(C#Cc3ccccc3F)cc2)CCCCC1 [Example 59]
0.5 to 1 µM

// next entry
IC50 in this record for O=C(NCC1(NC2CC2)CCCCCC1)c1ccc(C#Cc2ccc(F)c(F)c2)cc1 [Example 18] : 0.5 to 1 µM

----------
# Tested on: physical (tactile) allodynia in spinal nerve ligation model
# experiment_description: Analgesic efficacy experiment using animal model (Chung model, spinal nerve ligation)
# Type: in vivo, Sprague-Dawley rats
# condition_description: rat, oral, 50 mpk, 1 h; read-out: % reversal (1 h)
// reported inhibition in vivo at 50 mg/kg per item
Lab book: enter the figure in %, no units written.

So for O=C(NCC1CCC(F)(F)CC1)c1ccc(C#Cc2ccncc2)cc1 , the logged inhibition in vivo at 50 mg/kg turned out to be 97.8

Kindly note the recorded inhibition in vivo at 50 mg/kg for O=C(NCC1CCCCC1O)c1ccc(C#Cc2ccccc2F)cc1 (stereo not drawn) , which is 70.9

So for O=C(NCC1(NC2CC2)CCC1)c1ccc(C#Cc2ccncc2)cc1F , the logged inhibition in vivo at 50 mg/kg turned out to be 44.9

For reference, reported inhibition in vivo at 50 mg/kg for O=C(NCC1CCOC1)c1ccc(C#Cc2ccccc2F)cc1 (stereo not drawn) stands at 72.9

O=C(NCC1CC(F)(F)C1)c1ccc(C#Cc2ccncc2)cc1 yielded inhibition in vivo at 50 mg/kg of 111

Documented inhibition in vivo at 50 mg/kg of O=C(NCC1(NC2CC2)CCCCCC1)c1ccc(C#Cc2ccncc2F)cc1 : 61

For record O=C(NCC1CCCOC1)c1ccc(C#Cc2ccccc2F)cc1 (stereo not drawn) the listed inhibition in vivo at 50 mg/kg is 103

molecule O=C(NCC1(NC2CC2)CCCC1)c1ccc(C#Cc2ccc(F)cn2)cc1 , inhibition in vivo at 50 mg/kg observed: 59

Form field inhibition in vivo at 50 mg/kg, entry O=C(NC[C@H]1CCCO1)c1ccc(C#Cc2ccccc2F)cc1 : 77.7

----------
# System: physical (tactile) allodynia in spinal nerve ligation model
# experiment_description: Analgesic efficacy experiment using animal model (Chung model, spinal nerve ligation)
# Type: in vivo, Sprague-Dawley rats
# condition_description: rat, oral, 25 mpk, 1 h; read-out: % reversal (1 h)
observed_property: inhibition in vivo at 25 mg/kg (%)
Please respond with the number in % and leave the unit unwritten.

COC1(CNC(=O)c2ccc(C#Cc3ccccc3F)cc2)CCOCC1 [Example 66]
64.1

Entry CC(C)NC1(CNC(=O)c2ccc(C#Cc3ccccc3F)cc2)CCCCC1 [Example 25] — recorded inhibition in vivo at 25 mg/kg = 36.5

# molecule O=C(NCC1CCO1)c1ccc(C#Cc2ccccc2F)cc1 (centres unmarked) [Example 58] ; its inhibition in vivo at 25 mg/kg = 61.5

The recorded inhibition in vivo at 25 mg/kg for CC1(CNC(=O)c2ccc(C#Cc3ccc(F)cc3)cc2)COC1 [Example 83] is 55

// field: inhibition in vivo at 25 mg/kg; key: O=C(NCC1CCOCC1)c1ccc(C#Cc2ccccc2)cc1 [Example 49] ; value = 28.5
